- Tested on: NCI-H522 lung
- Measurement protocol: NCI tumour cell line growth inhibition, 48 h
Reported property: TGI

Request: I'm curious: which TGI was measured for `O=C1c2c(c(-c3ccccc3)c(-c3ccccc3)c(-c3ccccc3)c2-c2ccccc2)C(=O)N1c1cccc(Br)c1` tested on NCI-H522 lung?
Response: > 100 µM

Request: Notebook: pull reported TGI for NCI-H522 lung, entry `COc1cc(O)cc2oc(-c3ccc(O)cc3)cc(=O)c12`
Response: > 100 µM

Request: Item: `CC(C)OP(=O)(OC(C)C)c1ncc(-c2ccc(C(F)(F)F)cc2)c(NC2CCCCCC2)n1` Test system: NCI-H522 lung Read-out: TGI Value: ?
Response: > 10 µM

Request: Identify the measured TGI of `O=C(Nc1c(O)[nH]c(=S)[nH]c1=O)c1ccco1` for NCI-H522 lung.
Response: > 100 µM

Request: Test system NCI-H522 lung; read-out TGI; what value for `O=C(O)/C=C\C(=O)c1ccc(Cl)cc1` ?
Response: > 100 µM

Request: What measured TGI is associated with `CCOP(=O)(CN1CCNCCN(CP(=O)(OCC)OCC)CC1)OCC` on NCI-H522 lung?
Response: > 100 µM

Request: Query for NCI-H522 lung: what TGI does the record show for CC(C)(O)[C@@H]1CC[C@](C)(C2[C@@H](O)C[C@@]3(C)C4C[C@H](OC5OCC(O)C(O)C5O)[C@H]5C(C)(C)[C@@H](OC6OCC(O)C(O)C6OC6OCC(O)C(O)C6O)CC[C@@]56C[C@@]46CC[C@]23C)O1 (some centres undefined) ?
Response: > 100 µM

Request: Please tell me: TGI of `OCCCCOC(c1ccccc1)(c1ccccc1)c1ccccc1` , system NCI-H522 lung?
Response: > 100 µM

Request: Please tell me: TGI of COC(=O)/C(=N\NC(N)=O)C(C(=O)C(=O)Nc1ccccc1C(=O)OC)c1nc2ccc(C(=O)c3ccccc3)cc2[nH]c1=O (centres undefined) , system NCI-H522 lung?
Response: > 100 µM

----------
- Tested on: CCRF-CEM leukemia
- Measurement protocol: NCI tumour cell line growth inhibition, 48 h
Would you mind telling me the reported TGI of each entry?

Request: Reported TGI, compound COc1ccc(C2Oc3ccc(Cl)cc3C=C2[N+](=O)[O-])cc1OC (centres undefined) : ____
Response: 0.372 µM

Request: For the compound shown here, `O=C(O)/C=C\C(=O)c1ccc(Cl)cc1` , give the reported TGI.
Response: 48.7 µM

Request: Quick one: TGI of [N-]=[N+]=NCC1OC(n2cnc3c(N)ncnc32)C2OC12 (centres undefined) ?
Response: > 100 µM

Request: Quick check: TGI of `CC1(C)Cc2c(c3ccccc3c3nc4c(nc23)c2c(c3ccccc34)OC(C)(C)C2)O1` ?
Response: > 100 µM

Request: GET /values?readout=TGI&item= `Cc1noc(C)c1-n1nc2ccc3nonc3c2n1`
Response: > 100 µM

Request: Reported TGI, compound `Cc1ccc2cc3c(cc(C)c4ccccc43)c3c2c1CC3` : ____
Response: > 100 µM

Request: Requested read-out: TGI. Entry: COc1cc(COC(=O)N2CSCC2C(=O)O)c([N+](=O)[O-])cc1OC (centres undefined)
Response: > 100 µM

Request: Value lookup for TGI; key = CC(=O)OC(C)(C)C1O[C@@]23OC1C[C@@H](C)[C@@H]2[C@@]1(C)CC[C@@]24C[C@@]25CC[C@H](OC2OCC(O)C(O)C2O)C(C)(C)[C@@H]5CCC4[C@]1(C)[C@H]3O (some centres undefined)
Response: > 38.3 µM

Request: State the recorded TGI for this entry: `Nc1ccc(C(=O)N/C(=C\C=C\c2ccco2)c2nc3c4c(ccc3[nH]2)C(=O)c2ccccc2C4=O)cc1`
Response: > 100 µM

----------
Task for the reader: assign each of the following compounds its reported TGI.
- System: SF-268 CNS
- Measurement protocol: NCI tumour cell line growth inhibition, 48 h
Quick note: give the figure in µM, leave out the unit.

Request: Reported TGI for CC1=NN(c2cccc(Cl)c2)C2(C1=Cc1ccccc1)C(Cl)C(=O)N2c1nc2ccccc2s1 (stereo unspecified) : what is it?
Response: 97.6

Request: Fill in the blank: the reported TGI of `C[C@]12CC[C@H]3[C@@H](CCC4=C[C@@H](N5CCCC5)CC[C@@]43C)[C@@H]1C/C(=C\c1ccncc1)[C@@H]2O` is ____.
Response: 41.8

Request: Value lookup for TGI; key = CC1NOC(=O)C1N=Nc1ccccc1Br (stereo unspecified)
Response: 66

Request: Looking for the measured TGI of `Cc1ccc(-c2nc3nc(-c4ccc(Br)cc4)nc(N4CCCNCC4)c3o2)cc1` , can you help?
Response: 15.2

Request: Quick one: TGI for CC[C@H](C)[C@H]1NC(=O)[C@@H](NC(=O)[C@@H](CC(C)C)N(C)C(=O)C2CCCN2C(=O)[C@H](C)O)[C@@H](C)OC(=O)[C@@H]2Cc3ccccc3CN2C(=O)[C@@H]2CCCN2C(=O)[C@H](CC(C)C)NC(=O)[C@@H](C)C(=O)[C@H](C(C)C)OC(=O)C[C@@H]1O (stereo partly specified) ?
Response: 6.34

Request: Using the record for C/C=C/C1=CN2C(=O)c3cc(OC4OC(C)C(NC)C(C)(O)C4O)c(C)cc3N=C[C@@H]2C1 (stereo partly specified) , report its TGI.
Response: 0.0372

Request: Please look up its TGI: CC1(c2ccccc2)CCN(C2CC2)CO1 (stereo unspecified)
Response: 35.4

----------
- Test system: NCI/ADR-RES ovarian
- Measurement protocol: NCI tumour cell line growth inhibition, 48 h
Please provide measured TGI for the entries that follow.

Request: // query TGI value for entry `COc1cc([C@@H]2c3cc4c(c(O[C@@H]5O[C@H]6CO[C@@H](C)O[C@H]6[C@H](O)[C@@H]5O)c3C[C@H]3COC(=O)[C@@H]32)OCO4)cc(OC)c1O`
Response: 37.1 µM

Request: Look up TGI: NC(=S)C1=C(N)Oc2c(c(=O)oc3ccccc23)C1c1ccc(Br)cc1 (stereo not drawn)
Response: > 100 µM

Request: Looking for the measured TGI of CCOC(=O)C(C)c1nc2cc(N3CCOCC3)c(F)cc2[nH]c1=O (stereo not drawn) , can you help?
Response: > 100 µM

----------
- System: HOP-92 NSCLC
- Measurement protocol: NCI tumour cell line growth inhibition, 48 h
Reported property: log10(TGI) (log10 of the value in µM)
Each number you see is log10 of TGI, and the unit inside the log is µM.

Request: Fill in the blank: the reported log10(TGI) of `CC(C)N(Cc1c(F)cccc1F)c1ccc(CO)c(Cl)c1` is ____.
Response: 0.24

Request: Quick one: log10(TGI) for `Nc1nc(/C=C\c2ccc([N+](=O)[O-])s2)nc(N2CCOCC2)n1` ?
Response: 1.45

Request: Return reported log10(TGI); argument: `C#C[C@@]1(O)[C@@H](CO)O[C@@H](n2cc(Br)c3c(N)ncnc32)[C@@H]1O`
Response: 0.16

Request: Which log10(TGI) value is on record for O=C1CSC2=NC3=C(CSC/C3=C\c3ccc(Cl)cc3)C(c3ccc(Cl)cc3)N12 (stereo not given) ?
Response: 1.60

Request: Give the measured log10(TGI) of C[C@@H](CC(O)C1OC1(C)C)[C@@H]1CC[C@]2(C)C3=CCC4C(C)(C)C(O)CC[C@]4(C)C3CCC12C (stereo not given in full) .
Response: 1.62

Request: // lookup log10(TGI) for `c1ccc2nc(-c3ccc4c(c3)OCO4)ccc2c1`
Response: 1.28

Request: What measured log10(TGI) goes with `COc1cc(-c2nn(-c3ccc(NC(=O)NCCNS(=O)(=O)c4ccc(F)cc4)cc3)cc2-c2ccncc2)ccc1Cl` ?
Response: 0.77

Request: Given the entry `Cc1c(-c2c(C)c(=O)c3c(C(C)C)c(=O)c(=O)c(C=O)c-3c2=O)c(O)c2c(C=O)c(O)c(O)c(C(C)C)c2c1O` , report its measured log10(TGI).
Response: 0.87

Request: Look up log10(TGI) for this compound: `CC(C)(C)C(=O)OCCNc1nc(-c2ccccc2)nc2ccccc12`
Response: 1.46

Request: Would you kindly share the measured log10(TGI) for `O=C1CCC/C=C\C[C@H]2C=CC(=O)/C2=C/C[C@H](CCc2cccc(C(F)(F)F)c2)O1` ?
Response: 0.68

Request: Which log10(TGI) reading was recorded for the compound CCOC(=O)CCC(NC(=O)c1ccc(Sc2nc3cc(N)cc(N)c3nc2-c2ccccc2)cc1)C(=O)OCC (stereo not given) ?
Response: 1.66

Request: Which log10(TGI) reading was recorded for the compound `Cc1ccc2cc3c(cc(C)c4ccccc43)c3c2c1CC3` ?
Response: 1.92
